cell viability overview
system: SEM cells; assay: cell viability relative to DMSO control; higher = less cytotoxic; conditions: RPMI 5 mM glucose + 10% FBS; 48 h; 0.00234 µM
I only need the number, in %, no unit after it.

Below are worked cases with known answers.
compound: C[C@@H]1CN[C@H]2[C@@H](C)[C@@]\3(CC[C@H]\4[C@@H]5C/C=C6/C[C@@H](O)CC[C@]6(C)[C@H]5CC4=C3C)O[C@@H]2C1
cell viability [%]: 119
//
compound: O=C1\C=C/C[C@@H]2[C@H]3CCCN4CCC[C@@H](CN12)[C@@H]34
cell viability [%]: 77.1
//
compound: O=C(O)c1ccc(-n2nc(-c3ccccc3O)nc2-c2ccccc2O)cc1
cell viability [%]: 76.6

Tell me reported cell viability for C[C@@H](O)[C@@H]1[C@H]2[C@@H](C)\C(=C(/N2C1=O)C(=O)OCOC(=O)C(C)(C)C)SC3CN(C3)/C4=N/CCS4 , tested with SEM cells. 114

So what cell viability did CC[C@H]1/C=C\C=C/C[C@@H](C)[C@H](O)[C@@](C)(O)C(=O)[C@@H](C)[C@H](O)[C@@H](C)C(=O)[C@@H](C)[C@H](O)[C@@H](C)/C=C/C(=O)O[C@@H]2[C@H](C)[C@H](CC1)O[C@]1(CC[C@H](C)[C@H](C[C@@H](C)O)O1)[C@H]2C get with SEM cells? 93.9

Provide value of cell viability for this record tested with SEM cells: COC[C@@H](NC(C)=O)C(=O)NCc1ccccc1 111

SEM cells / cell viability / CC(C)C[C@H](NC(=O)CNC(=O)c1cc(Cl)ccc1Cl)B1OC(=O)CC(CC(=O)O)(C(=O)O)O1 (some centres not stated) : value? 132
